# assay.target: PaKdsB (2-keto-3-deoxy-D-manno-octulosonate cytidylyltransferase) (Pseudomonas aeruginosa, UniProt Q9HZM5)
# Construct: native KdsB with N-terminal tag MHHHHHH EFSQQDSD
# Sequence (Q9HZM5 1-254): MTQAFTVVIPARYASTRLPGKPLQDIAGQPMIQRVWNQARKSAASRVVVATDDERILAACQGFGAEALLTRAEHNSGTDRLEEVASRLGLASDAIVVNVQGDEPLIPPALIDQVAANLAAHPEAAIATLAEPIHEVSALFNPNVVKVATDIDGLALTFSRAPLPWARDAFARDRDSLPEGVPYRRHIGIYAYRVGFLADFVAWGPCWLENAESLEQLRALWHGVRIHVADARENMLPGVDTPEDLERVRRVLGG
# procedure.summary: malachite green enzyme assay (IC50), inhibition kinetics; increased thermostability
endpoint: IC50 (µM)
Answer with a number only, understood to be in µM.

// query IC50 value for entry O=C1OC2(c3cc(I)c(O)c(I)c3Oc3c2cc(I)c(O)c3I)c2c(Cl)c(Cl)c(Cl)c(Cl)c21 [Rose Bengal]
14.7

----------
# assay.target: BtKdsB (2-keto-3-deoxy-D-manno-octulosonate cytidylyltransferase) (Burkholderia thailandensis)
# Sequence (Q2T0K3 whole entry): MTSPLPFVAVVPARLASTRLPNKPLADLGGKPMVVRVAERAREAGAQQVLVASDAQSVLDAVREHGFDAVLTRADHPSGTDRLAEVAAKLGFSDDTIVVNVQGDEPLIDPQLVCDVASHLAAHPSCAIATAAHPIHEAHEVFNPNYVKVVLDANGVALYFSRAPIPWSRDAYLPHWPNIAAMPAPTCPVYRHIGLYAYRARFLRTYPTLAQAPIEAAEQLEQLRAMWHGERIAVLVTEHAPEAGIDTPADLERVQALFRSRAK
endpoint: pIC50
Quick note: pIC50 means taking -log10 of the concentration in moles per liter.

Can you share its pIC50? I mean this compound: O=C1OC2(c3cc(I)c(O)c(I)c3Oc3c2cc(I)c(O)c3I)c2c(Cl)c(Cl)c(Cl)c(Cl)c21
5.14
